assay: relative permittivity at various frequencies (dimensionless); conditions: 293.15 K; 100 kPa; Liquid; Frequency=0.01 MHz; Coaxial cylinder capacitor
± gives the expanded uncertainty stated by the source.
relative permittivity values, listed per item
RECORDED_ENDPOINT: relative permittivity

1. c1ccccc1 [benzene]
2.29 ± 0.13
2. ClC(Cl)(Cl)Cl [tetrachloromethane]
2.23 ± 0.13
3. CC#N [acetonitrile]
37.7 ± 1.7
4. C1CCCCC1 [cyclohexane]
2.02 ± 0.12
